Reference source: the supplement of paper PMC6555819

- System: PPARg:RXRa 270nM:90nM, anti-RXR (NR concentration 270 nM, RXRa partner concentration 90 nM)
- experiment: PBM binding z-score (relative to random genomic background probes); higher = stronger binding; sequences stand for … in GC…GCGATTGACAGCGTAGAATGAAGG
Binary classification by PBM binding z-score, with 2 as an inclusive lower bound for t; all other cases are f.

The examples below pair each entry with its known result.
TCAGACTGGTGAAGGTAACTCAGGTACGCAGTCG : f
TCTCGGAGGACACGAAAGGTCAGAGCCCGACATC : t
GTTACAGGGTCAGCTAGAGGCCAGAGTATGGAAA : t
TCTAGTTAGTCACGGAGGTCACACACGACGGGTA : t
TAGCCTAGGTCATTGGGCCAGGATAGTACGCATC : t

Okay, now this sequence:
Data request: Quick check: does TCAGACAGGTGAAGGTGACTCAGGTACGCAGTCG have PBM binding z-score greater than or equal to 2?
Data returned: t
